Reference for the values: patent US12617777B2

system: neutrophils; test: Neutrophil migration assay (embelin as chemotactic agent, ATPlite readout); format: cell-based; settings: Neutrophil; human neutrophils, embelin as chemotactic agent; read-out: Human Neutrophil migration inhibition IC50
Measurement Type: IC50

// lookup IC50 for Cc1cc(C#CC2CC2)ccc1-c1cn(CC2CCCCO2)nn1 (stereo not drawn) [Compound I-34] 1 to 3 µM

Moving on to the next compound: CC(C)Oc1cc(C#CC2CC(F)(F)C2)cnc1-c1cn(CC2OCC(C)(C)CO2)nn1 [Compound I-650] ≤ 0.3 µM

Entry CN(C)c1cc(C#CC2CC2)ccc1-c1cn(CC2CCCCO2)nn1 (stereo not drawn) [Compound I-87] please 1 to 3 µM
